Attribution: patent US20250388666A1

Test System: T1, CEACAM1 (Sino Biological) (human, UniProt P13688 35-428, limits assumed)
T1 construct: may be the same as CEACAM1-HIS; also called hCEACAM1; biotinylated soluble CEACAM1
T1 sequence: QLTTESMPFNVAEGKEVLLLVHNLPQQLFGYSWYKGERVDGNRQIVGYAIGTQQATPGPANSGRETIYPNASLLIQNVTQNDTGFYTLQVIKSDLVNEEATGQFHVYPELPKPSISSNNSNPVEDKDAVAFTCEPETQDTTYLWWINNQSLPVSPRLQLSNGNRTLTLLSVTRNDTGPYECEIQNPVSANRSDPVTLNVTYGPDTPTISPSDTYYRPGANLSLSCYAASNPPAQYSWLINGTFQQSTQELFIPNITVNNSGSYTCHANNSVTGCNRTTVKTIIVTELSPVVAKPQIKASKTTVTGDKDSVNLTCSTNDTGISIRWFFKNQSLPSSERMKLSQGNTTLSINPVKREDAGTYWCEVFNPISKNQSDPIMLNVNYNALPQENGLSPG
Experiment Description: SPR multi-cycle, IgG on Protein A
Binarize kon at 40000 M⁻¹ s⁻¹; below is y, at or above is n.

# Binder, Cat
rows = [
    ("He3/L20 (antibody, IgG4, V domains shown, IgG4 S241P, kappa; also called He3 / 20) VH: EVQLLESGGGLVQPGGSLRLSCAASGFSFSDYYLYWVRQAPGKGLEWVATISVGGGQTSYADSVKGRFTISRDNSKNTLYLQMNSLRAEDTAMYYCTRALTYGPAWLAYWGQGTLVTVSS VL: DIVMTQSPDSLAVSLGERATINCKSSQSLLNSANQKNYLAWYQQKPGQPPKLLIYFASTRESGVPDRFSGSGSGTDFTLTISSLQAEDVAVYYCQSHFPYPLTFGGGTKVEIK", "n"),
    ("He17/L16 (antibody, IgG4, V domains shown, IgG4 S241P, kappa; also called 17 / 16) VH: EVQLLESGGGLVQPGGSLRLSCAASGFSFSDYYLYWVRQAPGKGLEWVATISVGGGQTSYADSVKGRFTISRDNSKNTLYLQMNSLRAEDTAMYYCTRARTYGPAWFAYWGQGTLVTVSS VL: DIVMTQSPDSLAVSLGERATINCKSSQSLLNSANQKNYLAWYQQKPGQPPKLLIYFASTRESGVPDRFSGSGSGTDFTLTISSLQAEDVAVYYCQSHYPYPFTFGGGTKVEIK", "n"),
    ("He9/L6 (antibody, IgG4, V domains shown, IgG4 S241P, kappa; also called He9 / 6) VH: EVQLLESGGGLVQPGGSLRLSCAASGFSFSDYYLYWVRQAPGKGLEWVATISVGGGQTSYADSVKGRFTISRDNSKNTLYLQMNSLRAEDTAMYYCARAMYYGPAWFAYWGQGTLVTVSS VL: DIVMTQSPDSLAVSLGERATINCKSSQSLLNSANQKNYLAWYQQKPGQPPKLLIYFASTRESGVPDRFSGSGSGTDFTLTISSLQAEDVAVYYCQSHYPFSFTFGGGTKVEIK", "y"),
    ("He14/L1 (antibody, IgG4, V domains shown, IgG4 S241P, kappa; also called He14 / 1) VH: EVQLLESGGGLVQPGGSLRLSCAASGFSFSDYYLYWVRQAPGKGLEWVATISVGGGQTSYADSVKGRFTISRDNSKNTLYLQMNSLRAEDTAMYYCTRGLYYGPSWVAYWGQGTLVTVSS VL: DIVMTQSPDSLAVSLGERATINCKSSQSLLNSANQKNYLAWYQQKPGQPPKLLIYFASTRESGVPDRFSGSGSGTDFTLTISSLQAEDVAVYYCQSHYPFYYTFGGGTKVEIK", "n"),
    ("Parent VH/L4#2 (antibody, IgG4, V domains shown, IgG4 S241P, kappa; also called VHp/L4 #2; VH2 N56Q / 4#2) VH: EVQLLESGGGLVQPGGSLRLSCAASGFSFSDYYLYWVRQAPGKGLEWVATISVGGGQTSYADSVKGRFTISRDNSKNTLYLQMNSLRAEDTAMYYCTRGLYYGPAWFAYWGQGTLVTVSS VL: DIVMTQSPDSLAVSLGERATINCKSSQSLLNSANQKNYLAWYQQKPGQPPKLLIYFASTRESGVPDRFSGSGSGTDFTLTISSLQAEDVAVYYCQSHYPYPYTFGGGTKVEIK", "y"),
    ("He9/L4#2 (antibody, IgG4, V domains shown, IgG4 S241P, kappa) VH: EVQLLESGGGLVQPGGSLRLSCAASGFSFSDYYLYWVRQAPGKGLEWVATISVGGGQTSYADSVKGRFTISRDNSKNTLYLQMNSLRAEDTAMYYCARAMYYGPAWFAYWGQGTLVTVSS VL: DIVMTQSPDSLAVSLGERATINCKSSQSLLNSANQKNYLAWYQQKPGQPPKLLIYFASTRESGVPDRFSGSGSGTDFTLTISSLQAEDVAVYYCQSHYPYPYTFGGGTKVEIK", "y"),
]
